These measurements were taken from ChEMBL document CHEMBL1201862.

# Tested on: PC-3
# assayDetails: NCI tumour cell line growth inhibition, 48 h
Activity calls are given as the source filed them. No stated cut-off is given here; in the data, active = GI50 up to about 1.1 µM and inactive = higher.
Quick reference for GI50 among some compounds
propertyName: GI50

[[record]]
compound = "NP(=O)(OCC1=CC(=O)c2ccccc2C1=O)N(CCBr)CCBr (stereo unspecified)"
result = "10.9 µM (inactive)"

[[record]]
compound = "OC1CCCC1C(O)(C(F)(F)F)C(F)(F)F (stereo unspecified)"
result = "> 100 µM (inactive)"

[[record]]
compound = "Cc1ccc(N2C(=O)C(=O)N(/N=C3\\C(=O)Nc4ccccc43)C2=S)cc1"
result = "39.4 µM (inactive)"

[[record]]
compound = "Cc1ccc(/C=C2\\Cc3cc(C)c(C)cc3C2=O)c(C(=O)O)c1"
result = "22.3 µM (inactive)"

[[record]]
compound = "CC(=O)Nc1c2sscc-2n(C)c1=O"
result = "1.58 µM (inactive)"

[[record]]
compound = "Clc1cccc(-c2sc(-c3ccsc3)cc2Cc2ccsc2)c1"
result = "> 10 µM (inactive)"

